System: SW-620 colon
Reported values of GI50 for individual entries

// worked examples, GI50 included
INSERT INTO results (structure_smiles_string, target_entity, experimental_endpoint, observed_measurement) VALUES
  ('COc1cc(Cl)cc(-c2nn(-c3cccc(NC(=O)Nc4ccc(Cl)c(C(F)(F)F)c4)c3)cc2-c2ccncc2)c1', 'SW-620 colon', 'GI50', '1.61 µM'),
  ('COc1cc(/C=C/C(=O)c2cccnc2Nc2ccc(F)cc2)cc(OC)c1OC', 'SW-620 colon', 'GI50', '3.3 µM'),
  ('COc1ccc(-c2nn(-c3cccc(NC(=O)c4ccc(N5CCOCC5)c(C(F)(F)F)c4)c3)cc2-c2ccncc2)cc1Cl', 'SW-620 colon', 'GI50', '21.3 µM'),
  ('Cn1cnc([N+](=O)[O-])c1Sc1ncn[nH]1', 'SW-620 colon', 'GI50', '61.1 µM'),
  ('ClCc1ccc(Cn2cnc3c(Cl)nc(Cl)nc32)cc1', 'SW-620 colon', 'GI50', '3.79 µM');

Field: next compound
Quick one: GI50 for CC(C)COC(=O)c1ccc2[nH]c(O)c(C=Nc3ccc(S(N)(=O)=O)cc3)c2c1 ?
0.671 µM

* * *

Tested on: MOLT-4 leukemia
Assay: NCI tumour cell line growth inhibition, 48 h
Recorded measurements of TGI, one per entry

INSERT INTO measurements (compound, experimental_endpoint, observed_measurement) VALUES
  ('Cc1ncc([N+](=O)[O-])n1CCNC(=O)Cn1c([N+](=O)[O-])cnc1C', 'TGI', '> 100 µM'),
  ('COc1ccc(CCc2nccn2C)cc1OC', 'TGI', '> 100 µM'),
  ('COc1ccc(OC)c(Nc2nc(-c3c(C)nc4sccn34)cs2)c1', 'TGI', '> 100 µM'),
  ('CCN(CC)CCSCCCNc1c2ccc(Cl)cc2nc2ccc(OC)cc12', 'TGI', '3.94 µM'),
  ('Nc1ccc([C@H]2C(=O)N[C@H]3CCC[C@H]32)cc1', 'TGI', '> 100 µM'),
  ('C/C=C(\C)C(=O)N[C@H]1C(O)C[C@]2(C)C3CC[C@@]4(C)C(CC[C@@H]4C(C)N(C)C)C3CCC2C1O (stereo not given in full)', 'TGI', '17.2 µM'),
  ('CCc1nc(N)nc(N)c1-c1ccc(Cl)c(N=CN(C)C)c1', 'TGI', '> 100 µM'),
  ('CC1=NN(C(=O)CC(=O)Nc2cccc(Cl)c2)C(=O)C1N=Nc1ccc(C(=O)O)cc1 (stereo not given)', 'TGI', '> 100 µM');

Next:
Using the record for C=CCN1CN(c2ccccc2)C2(CCN(CCCC3(c4ccc(F)cc4)OCCO3)CC2)C1=O , report its TGI.
39.6 µM

* * *

// values below are GI50; system is SK-OV-3 ovarian

Past entries and their recorded results:
INSERT INTO measurements (structure_smiles_string, observed_measurement) VALUES
  ('CO[C@H]1CC(c2ccc[nH]2)=N[C@]12O[C@@H](C)C[C@@H]1CCCCCCCc3ccc([nH]3)[C@H]12', '4.41 µM'),
  ('COc1ccc(-c2nn(-c3cccc(NC(=O)c4ccc(N5CCOCC5)c(C(F)(F)F)c4)c3)cc2-c2ccncc2)cc1Cl', '32.8 µM'),
  ('CN(/N=N/c1nc(OCc2ccccc2)c2[nH]cnc2n1)C(=O)Oc1ccc([N+](=O)[O-])cc1', '10.4 µM');

So what GI50 did c1ccc(CNc2nc(Nc3ccccc3)nc3ccccc23)cc1 get with SK-OV-3 ovarian?
3.26 µM
